The measured values listed here are drawn from ChEMBL document CHEMBL5236633.

Biological target: Poly [ADP-ribose] polymerase 1 (Homo sapiens)
Sequence (P09874 whole entry): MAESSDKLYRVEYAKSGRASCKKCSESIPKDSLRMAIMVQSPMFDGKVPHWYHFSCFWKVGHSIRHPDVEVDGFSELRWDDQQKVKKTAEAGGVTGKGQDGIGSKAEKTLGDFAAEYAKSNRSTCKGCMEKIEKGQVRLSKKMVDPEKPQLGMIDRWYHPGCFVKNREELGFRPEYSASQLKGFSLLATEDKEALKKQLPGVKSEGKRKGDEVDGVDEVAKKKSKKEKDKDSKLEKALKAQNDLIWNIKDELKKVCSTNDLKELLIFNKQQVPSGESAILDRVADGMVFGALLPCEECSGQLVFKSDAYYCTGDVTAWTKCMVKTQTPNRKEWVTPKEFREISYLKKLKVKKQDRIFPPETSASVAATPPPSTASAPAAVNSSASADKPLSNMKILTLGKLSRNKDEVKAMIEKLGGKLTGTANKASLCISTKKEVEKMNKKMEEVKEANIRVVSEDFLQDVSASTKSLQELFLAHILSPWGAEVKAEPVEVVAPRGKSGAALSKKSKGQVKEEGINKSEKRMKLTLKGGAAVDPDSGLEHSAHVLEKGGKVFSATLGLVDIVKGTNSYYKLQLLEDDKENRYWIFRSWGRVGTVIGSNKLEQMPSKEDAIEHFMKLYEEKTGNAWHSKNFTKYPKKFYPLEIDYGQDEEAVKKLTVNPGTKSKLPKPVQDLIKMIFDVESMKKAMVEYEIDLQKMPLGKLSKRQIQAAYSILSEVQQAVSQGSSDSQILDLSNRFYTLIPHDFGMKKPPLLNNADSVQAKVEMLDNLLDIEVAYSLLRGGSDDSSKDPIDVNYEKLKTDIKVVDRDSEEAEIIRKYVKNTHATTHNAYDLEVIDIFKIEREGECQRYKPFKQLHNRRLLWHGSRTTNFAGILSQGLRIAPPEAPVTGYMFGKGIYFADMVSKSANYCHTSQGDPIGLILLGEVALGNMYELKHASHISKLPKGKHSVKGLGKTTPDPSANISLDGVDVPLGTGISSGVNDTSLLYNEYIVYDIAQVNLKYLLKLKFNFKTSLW
Assay: Inhibition of PARP1 (unknown origin)
readout_type: IC50 (nM)

query_smiles=O=C1CCc2cc(-c3ccccc3F)ccc2C2(CCCCC2)N1 readout_type=IC50 units_of_measure=nM reported_value=19.9

(I) O=c1cc(-c2ccc(O)c(-c3c(O)cc(O)c4c(=O)cc(-c5ccc(O)cc5)oc34)c2)oc2cc(O)cc(O)c12
(II) Cc1nnc2n1N=C(c1ccccc1OCCNCCCNCCOc1ccccc1C1=Nn3c(C)nnc3SC1)CS2
(III) O=C1CN(Cc2cn(-c3ccccc3F)nn2)C2(CCCCC2)c2ccccc21
Prompt: Reorder the items by IC50, least to greatest. Answer with the labels in sequence, matching the requested order.
Completion: II, III, I
(II: 1.37 nM, III: 14.4 nM, I: 198 nM)

###

System: A549
Experiment: Antiproliferative activity against human A549 cells assessed as cell growth inhibition measured after 24 hrs by MTT assay
Format: functional, cell-based
Conditions: A549, 24 h
readout_type: pIC50
Give only the number. pIC50 is defined as minus log10 of concentration in molar units.

Prompt: Which measured pIC50 value corresponds to `O=C1CCc2cc(-c3ccccc3F)ccc2C2(CCCCC2)N1` ?
Completion: 5.70

###

Target: Protein mono-ADP-ribosyltransferase PARP16 (Homo sapiens)
Sequence (Q8N5Y8 whole entry): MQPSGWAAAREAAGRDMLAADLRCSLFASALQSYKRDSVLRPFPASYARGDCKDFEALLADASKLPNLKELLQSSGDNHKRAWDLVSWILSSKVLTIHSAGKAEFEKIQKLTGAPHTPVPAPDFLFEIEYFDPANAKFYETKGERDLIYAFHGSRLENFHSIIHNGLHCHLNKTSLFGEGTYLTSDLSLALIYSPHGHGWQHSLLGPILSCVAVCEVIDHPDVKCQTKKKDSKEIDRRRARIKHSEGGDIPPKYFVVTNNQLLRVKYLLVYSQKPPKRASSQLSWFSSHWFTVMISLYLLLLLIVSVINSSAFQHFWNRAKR
readout_type: IC50 (µM)
The answer is to be given in µM; state only the numeric part.

Prompt: Which measured IC50 value corresponds to O=C1NCC(c2ccccn2)[C@@H](O)c2cc(Cl)c(Cl)cc21 (stereo partly specified) ?
Completion: 0.362
